# Tested on: NCI-H23 lung
# test-description: NCI-60 one-dose screen, 48 h (100 = growth as untreated, 0 = no growth, -100 = all killed)
# condition-notes: 10 µM unless noted
About 83,000 compounds went through this panel and 20% of them were active in at least one assay; those are over-represented in the sample as a whole. Active and inactive are the calls of the source. How the source made its calls: active means growth percent below 10; inactive means the rest.
Property: growth; scope: individual compounds

compound	system-under-test	growth
O=C(CNC(=O)c1cccc2ccccc12)Nc1ccccc1Oc1ccc(O)cc1	NCI-H23 lung	37.2% [5 µM] (inactive)
C#C[C@]1(O)CCC2C3CCc4cc(O)ccc4C3CC[C@@]21C (some centres undefined)	NCI-H23 lung	62.4% (inactive)
O=C1C(=O)/C(=C/c2ccccc2)CCCCCC/C1=C/c1ccccc1	NCI-H23 lung	42.3% (inactive)
COc1cc(/C=C2\CN(C)CC3=C2Nc2nc(SC)[nH]c(=O)c2C3c2cc(OC)c(OC)c(OC)c2)cc(OC)c1OC (centres undefined)	NCI-H23 lung	49.4% (inactive)
Cc1cn(C(C=O)OC(C=O)CO)c(=O)[nH]c1=O (centres undefined)	NCI-H23 lung	107% (inactive)
COc1ccc(C2=NN(C(C)=O)C(c3c(C)nn(-c4ccccc4)c3N3CCOCC3)C2)cc1 (centres undefined)	NCI-H23 lung	100% (inactive)
C[C@]12CCC(=O)C=C1CC[C@H]1[C@@H]3C[C@@H](O)[C@](O)(C(=O)CO)[C@@]3(C)C[C@H](O)[C@@]12F	NCI-H23 lung	110% (inactive)
O=Nc1c2cccnc2n2nnc3ccc(Cl)cc3c12	NCI-H23 lung	66.4% (inactive)
COc1ccc(OC)c(CCn2cncc2-c2c[nH]c3cc(Br)ccc23)c1	NCI-H23 lung	30.1% (inactive)

Taken from PubChem BioAssay (NCI).
